System: BDF1 mice, Adenocarcinoma 755 s.c., tumor weight T/C
ASSAY_PROCEDURE: NCI In Vivo Anticancer Drug Screen. Data for tumor model Adenocarcinoma 755 (subcutaneous) in B6D2F1 (BDF1) mice
CONDITION_LABEL: endpoint: mean tumor weight; dose: 37.5 mg/kg/injection; schedule: Q01DX011 (ip); vehicle: methylcellulose (MC); higher = larger tumour
MEASURED_ENDPOINT: T/C

# COMPOUND, RESULT
records = [
    ("Nc1nc(SCc2ccc(Cl)cc2Cl)c2ncn(C3OC(CO)C(O)C3O)c2n1 (stereo unspecified)", "2 % of control"),
    ("Cc1ccc(CNc2ncnc3c2cnn3C2CCCCO2)cc1 (stereo unspecified)", "35 % of control"),
    ("Cn1c(N)nc2nc[nH]c2c1=O", "29 % of control"),
    ("Nc1nc(SCc2cccc([N+](=O)[O-])c2)c2[nH]cnc2n1", "41 % of control"),
    ("Nc1nc2nc(/N=N/SCCC(=O)O)[nH]c2c(=O)[nH]1", "54 % of control"),
    ("Clc1ncnc2c1ncn2C1CCCO1 (stereo unspecified)", "9 % of control"),
]

###

Overview of recorded T/C for various compounds
System: BDF1 mice, Adenocarcinoma 755 s.c., tumor weight T/C
ASSAY_PROCEDURE: NCI In Vivo Anticancer Drug Screen. Data for tumor model Adenocarcinoma 755 (subcutaneous) in B6D2F1 (BDF1) mice
CONDITION_LABEL: endpoint: mean tumor weight; dose: 240.0 mg/kg/injection; schedule: Q01DX011 (ip); vehicle: carboxymethylcellulose (CMC); higher = larger tumour

# COMPOUND, T/C
data = [
    ("COc1cc(N=Nc2cccc(S(=O)(=O)O)c2)ccc1NC(=O)c1ccc(C(=O)Nc2ccc(N=Nc3cccc(S(=O)(=O)O)c3)cc2OC)cc1", "57 % of control"),
    ("CSc1nc2c(=O)[nH]c(N)nc2n1C1OC(CO)C(O)C1O (centres undefined)", "47 % of control"),
    ("Nc1nc2c(nc(I)n2C2OC(CO)C(O)C2O)c(=O)[nH]1 (centres undefined)", "40 % of control"),
    ("CC(=O)OCC1OC(n2cnc3c(=O)[nH]c(N)nc32)C(OC(C)=O)C1OC(C)=O (centres undefined)", "51 % of control"),
    ("Cn1c(=O)c2ncn(CC(=O)O)c2n(C)c1=O", "120 % of control"),
    ("O=c1[nH]cnc2c1ncn2C1CCCO1 (centres undefined)", "75 % of control"),
    ("CSc1nc(Cl)c2cc[nH]c2n1", "79 % of control"),
    ("CC(=O)OCC1OC(n2cnc3c(=O)[nH]cnc32)C(OC(C)=O)C1OC(C)=O (centres undefined)", "67 % of control"),
    ("CN(C)S(=O)(=O)c1nc2nc[nH]c(=O)c2[nH]1", "91 % of control"),
]

###

Test system: BDF1 mice, Adenocarcinoma 755 s.c., tumor weight T/C
ASSAY_PROCEDURE: NCI In Vivo Anticancer Drug Screen. Data for tumor model Adenocarcinoma 755 (subcutaneous) in B6D2F1 (BDF1) mice
CONDITION_LABEL: endpoint: mean tumor weight; dose: 15.0 mg/kg/injection; schedule: Q01DX011 (ip); vehicle: saline; higher = larger tumour
Method: The antitumor activity of compounds was measured in mice bearing transplantable tumors. Survival or tumor size were measured and the results are expressed as the measurement made in the treated group (T) divided by the measurement made in the vehicle treated control group (C). The tumor model used in this assay is Adenocarcinoma 755 (subcutaneous) in B6D2F1 (BDF1) mice

# MOLECULE, T/C
rows = [
    ("CCOC(C)C(/C=N/NC(N)=S)=NNC(N)=S (centres undefined)", "49 % of control"),
    ("O=P1(N(CCF)CCF)NCCCO1 (centres undefined)", "26 % of control"),
    ("CN1CCC(N)=NC1=O", "88 % of control"),
    ("CC1CCC(n2cnc3c([N+](C)(C)C)ncnc32)O1 (centres undefined)", "58 % of control"),
]
